Assay: protein stability index of a GFP-peptide fusion (GPS, HEK-293T) (PSI 1-6); higher = more stable;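 note: 24-mer peptide tiles fused after GFP, lentivirally expressed, FACS-sorted into six equal bins by GFP/DsRed ratio, decoded by Illumina sequencing, PSI is the read-weighted mean bin number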
Conditions: treatment: DMSO; c terminus: a fixed tail appended
Recorded protein stability index determines the group label, using group A: < 3; group B: ≥ 3 and < 4; group C: ≥ 4

In: Field: class (protein stability index) — entry: DDKMVRFWRIDEDYPVQVAPLSNG [WSB1]
Out: group B

In: Class for GRPKELQPKKLHLCPLCGKNFSNN [ZNF263] ?
Out: group A

In: Into which category would you place HVLLPVALEFQPQLVLVAAGFDAL [HDAC6] ?
Out: group B

In: Given SLLTNWPSVPPTIKEEENSEEELA [MYBL2] , name the class its protein stability index places it in.
Out: group C

In: State the class of the sequence shown: LYDLRADREVAIYSKESIIFGASS [GNB5]
Out: group A

In: Category of ELLQQLDLNNCKNNLEPILEGYIS [KRT71] :
Out: group A

In: Category of LPHPKSMLQATAEANNLAAAASAK [ATL3] :
Out: group C

In: // bin(item) where item = QEYQVLLDVRARLECEINTYRSLL [KRT33B]
Out: group A

In: Sort into band: RGDLWISWEEGMKVFEELLLDADW [CRY1]
Out: group A

In: Category of KPISTKSQFLKHQQTHNIEKAHEC [ZNF649] :
Out: group C

In: Into which bin does this sequence go? KEHYLTFEKSRYETYIHLLAMKIK [PSD2]
Out: group B

In: Hi there! Could you help me figure out the category for DGMRNKETLEGREKAFIAHFQDNL [MED27] please?
Out: group C

In: // bin(item) where item = GQSDFRPKNGRHAWIWHDCHRHYH [LOXL2]
Out: group A

In: Which protein stability index band matches KDEWHKVFDLPESLGGIRACTLTV [KLHL13] ?
Out: group A

In: Hello team, could you let me know which band the following sequence falls into: ESQKKKQQDDSDEYDDDDSAASTS [ZNF207]
Out: group C

In: Where would LIERERSALGPNVTKITLESFLAW [ZC3H15] land among the classes by reported protein stability index?
Out: group A

In: Tag the class for PAWGHCFYRLYQDLETHRLPCTSR [SCNN1D]
Out: group A

In: // bin(item) where item = EHAIAEAQKNMYFKTRLKCPRSLS [ZNF396]
Out: group B

In: For this sequence, which bin applies? ELDPEVEGTKPSATEMIWAVLAAF [GOLPH3L]
Out: group A

In: Lab note: which band did LHPVQKVILNYPSPWDQEERPAQR [TRAF3IP2] land in?
Out: group B

In: Band for TKKKQWCYNCEEEAMYHCCWNTSY [ZMYND11] ?
Out: group A

In: Consider EEWGHQDPSKRALSRDTVQESYEN [ZNF263] . To which protein stability index class does it belong?
Out: group C

In: Form: Item = PFDLEQQWQDLMSIMEMQAMEVNT [NFE2L1] ; Class = ?
Out: group B

In: Band for the recorded protein stability index of LAKALLKRTAQAIEPYITNFFNQV [PDS5B] ?
Out: group A

In: Please classify: ENHQPVSLSDLEIQASAGVISKKA [ZNF75A]
Out: group C

In: Just checking, what class would you give GNVKIDSQKLNFREHAKARVDHGA [MAP2] here?
Out: group C

In: Hi there! Could you help me figure out the category for SAFPFSDKLGELSDKIGSTIDDTI [CLINT1] please?
Out: group B
